FYI, the data here is from patent US10329309B2.

- Tested on: Wnt activity (Sp5-Luc reporter, SW480 colon carcinoma cells)
- protocol-summary: Screening assay for Wnt activity: Sp5-Luc reporter gene assay in SW480 cells
- Type: cell-based
- assay-context: Homo sapiens, overnight incubation, 10-point dose-response from 10 μM
assay-readout: EC50

Record excerpt, results attached:
compound	EC50
Cc1ccc(-c2ccnc3[nH]c(-c4n[nH]c5ccc(-c6cncc(OC7CCCCC7)c6)nc45)nc23)s1 [Compound 735]	0.984 µM
COc1cccc(-c2ccnc3[nH]c(-c4n[nH]c5ccc(-c6cncc(OC7CCNCC7)c6)nc45)nc23)c1 [Compound 1025]	> 10 µM
CCNCc1cncc(-c2ccc3[nH]nc(-c4nc5c(-c6ccccn6)ccnc5[nH]4)c3n2)c1 [Compound 146]	> 10 µM
Cc1cn(-c2ccnc3[nH]c(-c4n[nH]c5ccc(-c6cncc(NC(=O)CC(C)C)c6)nc45)nc23)cn1 [Compound 198]	> 10 µM
Fc1cccc(-c2ccnc3[nH]c(-c4n[nH]c5ccc(-c6ccncc6)nc45)nc23)c1 [Compound 18]	> 10 µM

Okay, now this compound:
// field: EC50; key: Cc1ccncc1-c1ccc2[nH]nc(-c3nc4c(-c5ccncc5)ccnc4[nH]3)c2n1 [Compound 117] ; value = > 10 µM
